Recorded Cell binding FON (Fold Over Negative) for the following binders
# ASSAYED_SYSTEM: T1, mouse TIGIT on cells (Jurkat-mTIGIT) (mouse, UniProt P86176 29-249)
# T1 construct: whole, on cells
# T1 sequence (looked up): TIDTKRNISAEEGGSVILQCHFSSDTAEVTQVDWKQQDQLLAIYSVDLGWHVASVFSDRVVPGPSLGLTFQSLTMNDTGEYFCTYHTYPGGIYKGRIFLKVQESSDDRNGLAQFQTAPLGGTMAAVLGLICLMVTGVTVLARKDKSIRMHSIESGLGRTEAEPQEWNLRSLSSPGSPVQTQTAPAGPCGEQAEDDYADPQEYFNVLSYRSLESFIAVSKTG
# TEST_METHOD_NOTES: flow cytometry on Jurkat-mTIGIT, 100 nM antibody, vs untransfected Jurkat
Answer format: numeric, fold over negative implied, no suffix.

anti-TIGIT antibody clone 29499 (antibody, V domains shown, human IgG; Fab for 'Fab KD' columns) VH: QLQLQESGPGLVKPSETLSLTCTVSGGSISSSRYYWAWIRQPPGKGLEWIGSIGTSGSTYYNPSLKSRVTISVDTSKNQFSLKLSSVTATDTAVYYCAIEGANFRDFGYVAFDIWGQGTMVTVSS VL: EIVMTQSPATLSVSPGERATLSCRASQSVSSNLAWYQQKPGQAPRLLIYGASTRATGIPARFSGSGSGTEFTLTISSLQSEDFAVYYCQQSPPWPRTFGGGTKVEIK
541

[in] Supply measured Cell binding FON (Fold Over Negative) of anti-TIGIT antibody clone 26493 (antibody, V domains shown, Naive parent clone, VH3-09; human IgG; Fab for 'Fab KD' columns; mouse IgG2a/IgG1 versions only used in vivo / ex vivo; also called surrogate anti-TIGIT antagonistic antibody) VH: EVQLVESGGGLVQPGRSLRLSCAASGFTFGDYAMHWVRQAPGKGLEWVSGITWNSGSIGYADSVKGRFTISRDNAKNSLYLQMNSLRAEDTALYYCAKPVPKSRGLDVWGQGTMVTVSS VL: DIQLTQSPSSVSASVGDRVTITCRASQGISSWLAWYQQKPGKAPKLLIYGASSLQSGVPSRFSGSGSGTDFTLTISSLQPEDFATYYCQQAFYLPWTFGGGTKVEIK in your reply.
[out] 463

[in] Supply measured Cell binding FON (Fold Over Negative) of anti-TIGIT antibody clone 26486 (antibody, V domains shown, Naive parent clone, VH4-0B; human IgG; Fab for 'Fab KD' columns) VH: QVQLQESGPGLVKPSETLSLTCAVSGYSISSGYYWAWIRQPPGKGLEWIGSIYHSGSTYYNPSLKSRVTISVDTSKNQFSLKLSSVTAADTAVYYCAIEGANYYDFGYVAFDIWGQGTMVTVSS VL: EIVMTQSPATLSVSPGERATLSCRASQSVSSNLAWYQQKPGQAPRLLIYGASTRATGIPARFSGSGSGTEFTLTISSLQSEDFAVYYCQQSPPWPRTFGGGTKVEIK in your reply.
[out] 199
